Tested on: SN12C renal
Assay method text: NCI-60 one-dose screen, 48 h
Test settings: 10 µM unless noted
The panel holds about 83,000 compounds, 20% with a hit somewhere; the sample as a whole holds those more often. Activity calls are given as the source filed them. How the source made its calls: active means growth percent below 10; inactive means the rest.
// one of active, inactive, no free text

Could you please tell me the result logged for O=C(Nc1ccsc1C(=O)NC1CCCCC1)c1ccc(F)cc1 in this assay?
inactive

And for O=C(Nc1ncc(Cc2cccc(C(F)(F)F)c2)s1)C1COc2ccccc2O1 (stereo unspecified) ?
inactive

And for COc1c(B(O)O)cccc1-c1nc2ccc3n[nH]c(F)c3c2c2c1CCCC2 ?
inactive

And for CCOC(=O)c1cc2c(n1Cc1cc(OC)cc(OC)c1)-c1oncc1CCC2 ?
inactive

And for O=C1C(=O)c2c(ccc3ccccc23)-c2ccccc21 ?
active

And for Nc1ccc(-c2nn3c(CCC(=O)c4nc5ncccc5[nH]4)nnc3s2)c(O)c1 ?
inactive

====

Provide the recorded growth for the entries that follow.
Tested on: NCI-H522 lung
Assay method text: NCI-60 one-dose screen, 48 h (100 = growth as untreated, 0 = no growth, -100 = all killed)
Test settings: 10 µM unless noted
This is part of a sample that, as a whole, favours compounds with a hit. Of some 83,000 tested, about 20% had one in any assay.
State just the number; it will be interpreted in %.

# query: growth of entry COc1ccc(/C=c2\sc3n(c2=O)NC2C(N=3)N(C)C(=O)N2C)cc1 (stereo unspecified)
86.6

And for O=C(N/N=C/c1ccccc1Cl)C(=O)Nc1cccc(C(F)(F)F)c1 ?
105

And for O=C(Nc1ccccc1O)c1ccc(-c2ccc(Cl)cc2Cl)o1 ?
91.4

And for CCOC(=O)c1ccc2[nH]c(-c3ccccc3)cc(=O)c2c1 ?
101

And for COc1cc(C(C)n2cc(-c3ccccc3)nn2)ccc1OC1CCCCC1 (stereo unspecified) ?
50.3

And for COc1ccc(OC)c(NC(=O)/C(C#N)=C/c2ccco2)c1 ?
45.5

And for CC(C)[C@H](NC(=O)Cn1cc(C(=O)O)nn1)C(=O)O ?
104

And for O=C(O)CCCN1C(=O)C2C3CCC(C3)C2C1=O (stereo unspecified) ?
88

And for NCCOc1ccccc1/C=C1\c2ccccc2-c2ccc([N+](=O)[O-])cc21 ?
21.3

And for O=c1c2cccc(F)c2sc2c(N3CCNCC3)nc3ccccc3c12 ?
48.6

And for COc1ccc(Cn2cc(Cn3cc(C=C4C(=O)NC(=O)NC4=O)c4ccccc43)nn2)cc1 ?
89.9

====

Provide the recorded growth for the entries that follow.
System: CAKI-1 renal
Assay method text: NCI-60 one-dose screen, 48 h (100 = growth as untreated, 0 = no growth, -100 = all killed)
Test settings: 10 µM unless noted
About 83,000 compounds went through this panel and 20% of them were active in at least one assay; those are over-represented in the sample as a whole.
State just the number; it will be interpreted in %.

# query: growth of entry O=C1/C(=C\c2ccc[nH]2)c2ccccc2N1c1ccccc1
92

And for COc1ccc(S(=O)(=O)N(Cc2ccc3c(n2)C=CC(C)(C)O3)C2CCC2)cc1OC ?
-28.2

And for CCOc1ccc(-c2nonc2NC(=O)c2cccc(C)c2)cc1OCC ?
59.8

And for COC(=O)c1c2c(c(C)[n+]([O-])c1C)C(=O)C=C(NCc1ccccc1)C2=O ?
3.56

And for CN1C(=O)N(C)C2C1NN=c1s/c(=C\c3ccc(Cl)cc3Cl)c(=O)n12 (stereo not given) ?
40.9

And for CCn1c(-c2nonc2Nc2ccc(OC)cc2)nc2ccccc21 ?
102

And for CC(C)CCNCC(O)Cn1c2ccccc2c2ccccc21 (stereo not given) ?
-0.189

And for NC(CCc1nc2ccccc2c(=O)[nH]1)C(=O)O (stereo not given) ?
87.5

And for CN1C(=O)N(C)C2(c3ccccc3)n3c(s/c(=C\c4ccccc4)c3=O)=NNC12c1ccccc1 (stereo not given) ?
84.5

And for Cc1nn(-c2nc3ccccc3[nH]2)c2c1C(c1ccc(OCC(N)=O)cc1)CC(=O)N2 (stereo not given) ?
89.5
